Attribution: paper PMC10300155

target: UniProt Q9HBA0
Sequence (Q9HBA0 whole entry): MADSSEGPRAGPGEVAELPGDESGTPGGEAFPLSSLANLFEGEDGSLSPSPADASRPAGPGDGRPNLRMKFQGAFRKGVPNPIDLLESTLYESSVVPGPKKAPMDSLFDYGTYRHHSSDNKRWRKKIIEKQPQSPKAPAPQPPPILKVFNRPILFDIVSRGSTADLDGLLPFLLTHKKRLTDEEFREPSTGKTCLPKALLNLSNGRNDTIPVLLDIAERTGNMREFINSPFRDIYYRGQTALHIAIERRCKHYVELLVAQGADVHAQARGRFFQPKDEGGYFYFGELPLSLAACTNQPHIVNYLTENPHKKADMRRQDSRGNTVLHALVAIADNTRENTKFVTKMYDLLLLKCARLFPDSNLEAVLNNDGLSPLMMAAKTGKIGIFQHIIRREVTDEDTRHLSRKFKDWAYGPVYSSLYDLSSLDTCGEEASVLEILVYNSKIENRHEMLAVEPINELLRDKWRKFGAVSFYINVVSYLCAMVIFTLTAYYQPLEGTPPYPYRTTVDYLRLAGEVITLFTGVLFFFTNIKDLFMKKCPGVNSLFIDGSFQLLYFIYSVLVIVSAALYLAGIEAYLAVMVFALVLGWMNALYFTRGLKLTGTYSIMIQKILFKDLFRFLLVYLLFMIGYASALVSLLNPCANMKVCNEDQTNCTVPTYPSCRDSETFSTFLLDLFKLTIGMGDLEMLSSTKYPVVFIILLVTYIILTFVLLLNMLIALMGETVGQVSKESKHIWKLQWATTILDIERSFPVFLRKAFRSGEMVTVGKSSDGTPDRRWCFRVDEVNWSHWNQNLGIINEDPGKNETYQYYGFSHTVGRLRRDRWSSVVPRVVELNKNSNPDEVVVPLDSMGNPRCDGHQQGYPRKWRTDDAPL
REPORTED ENDPOINT: Kd (nM)

>  <COMPOUND STRUCTURE STRING>
COc1c(OCCCCN2CCCC2)cc(O)c2c(=O)cc(-c3ccccc3)oc12

>  <TARGET OR TEST SYSTEM>
UniProt Q9HBA0

>  <REPORTED ENDPOINT>
Kd

>  <VALUE>
106

$$$$
